B1: HDV Ribozyme (parent)
chain: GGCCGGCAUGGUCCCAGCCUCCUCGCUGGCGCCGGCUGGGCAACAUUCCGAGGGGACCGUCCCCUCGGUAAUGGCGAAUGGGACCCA

- Variants of: B1
- assay.details: self-cleavage, relative activity (ratio to wild type); higher = more cleavage; co-transcriptional
endpoint.label: self-cleavage

    mutation_name  assay_value
 0       C7U G54U            1
 1      G35A G54C         0.69
 2      G38A C41G        0.291
 3       G2A C44U       0.0554
 4      C22G A87G        0.106
 5      G52C A78U        0.315
 6      G68U U79G        0.374
 7      A16U U23G        0.575
 8      C22U C33G        0.163
 9      C14U G50U         1.09
10       U9C G38U        0.486
11      G68U C85G         1.07
12      C33G C85G        0.151
13      G17U G38U       0.0369
14      C18G C75G        0.229
15      C18U C85G        0.975
16      G35A G76A        0.709
17      C15G G40C        0.271
18       C7A G68A        0.464
19      C21U C64G        0.364
20      U60G G67U         1.07
21      G40A C58G         1.02
22      C24U A70G        0.706
23       G2A C63G       0.0804
24       C3A G52U        0.404
25       G2U G40U       0.0132
26      C24A C64A        0.803
27       C3U C61A        0.801
28      U27G A42C        0.185
29       G5C C14U        0.506
30      U20G C30A       0.0378
31      C18G G59A        0.128
32      U20C C44A            0
33      G53A C61G        0.751
34      U27G G50C          0.6
35      G10U C49G        0.391
36      G40C C41G        0.222
37      G28U C61A        0.201
38      G74U G81C        0.225
39       U9A C63A         1.25
40       G2C U60G       0.0326
41       C4G G67C        0.374
42      C18G C21A            0
43      C22U G81A       0.0911
44      U27C G40C        0.415
